Recorded IC50 by entry
Molecular target: recombinant human Lp-PLA2 (Homo sapiens)
Sequence (Q13093 22-441): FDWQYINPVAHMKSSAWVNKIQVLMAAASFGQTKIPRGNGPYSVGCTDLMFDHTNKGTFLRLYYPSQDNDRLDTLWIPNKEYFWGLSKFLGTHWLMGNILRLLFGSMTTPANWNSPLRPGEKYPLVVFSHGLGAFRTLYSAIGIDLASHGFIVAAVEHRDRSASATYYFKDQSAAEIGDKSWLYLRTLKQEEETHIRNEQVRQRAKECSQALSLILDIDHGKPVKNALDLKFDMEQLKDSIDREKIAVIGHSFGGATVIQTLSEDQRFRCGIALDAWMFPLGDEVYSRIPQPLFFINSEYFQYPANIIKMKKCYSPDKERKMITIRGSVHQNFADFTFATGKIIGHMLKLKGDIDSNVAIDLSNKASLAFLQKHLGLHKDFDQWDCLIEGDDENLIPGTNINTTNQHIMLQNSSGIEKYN
Assay: (1a) PED6 assay, recombinant human Lp-PLA2 (rhLp-PLA2)
Assay type: biochemical
Conditions: Examples 1-167 and 413-430 were tested here, one experiment or average of multiple experiments, read-out: rhLp-PLA2 (pIC50) (converted)

[[record]]
compound = "O=c1nc(OCc2cnc(Oc3ccc(Cl)c(C(F)(F)F)c3)c(F)c2)cc2n1CC1CCCN21 (centres unmarked)"
assayed_system = "recombinant human Lp-PLA2 (Homo sapiens)"
endpoint = "IC50"
meas_value = "≤ 100 nM"

[[record]]
compound = "O=c1nc(OCc2ccc(Oc3ccc(F)c(C(F)(F)F)c3)nc2)cc2n1CC1CCCN21 (centres unmarked)"
assayed_system = "recombinant human Lp-PLA2 (Homo sapiens)"
endpoint = "IC50"
meas_value = "≤ 100 nM"

[[record]]
compound = "O=c1nc(OCc2cc(F)c(OC3(CCF)CC3)c(F)c2)cc2n1C[C@H]1CCCCN21"
assayed_system = "recombinant human Lp-PLA2 (Homo sapiens)"
endpoint = "IC50"
meas_value = "≤ 100 nM"

[[record]]
compound = "O=c1nc(OCc2ccc(C(F)(F)F)c(Cl)c2)cc2n1CC1CCCCN21 (centres unmarked)"
assayed_system = "recombinant human Lp-PLA2 (Homo sapiens)"
endpoint = "IC50"
meas_value = "≤ 10000 nM"


What IC50 value was documented for this compound, O=c1nc(OCc2cc(F)c(Oc3ccnc(Cl)c3)c(F)c2)cc2n1CC1CCCCN21 (centres unmarked) ?
≤ 1 nM

// IC50 lookup, key: "O=c1nc(OCc2ccc(F)c(F)c2)cc2n1C[C@@H]1CCCCN21"
≤ 100 nM

IC50 lookup needed for "CN1c2cc(OCc3cccc(F)c3F)nc(=O)n2CC12CCCC2" , thanks.
≤ 100 nM

Fill blank: measured IC50 of the compound O=c1nc(OCc2cc(F)c(OC3CCC(F)(F)C3)c(F)c2)cc2n1CC1CCCN21 (centres unmarked) is ____.
≤ 100 nM

Returns the measured IC50 for the input compound. Input: "CCn1cc(Oc2c(F)cc(COc3cc4n(c(=O)n3)C[C@@H]3COCN43)cc2F)cn1"
≤ 100 nM

Dear colleague, I am looking for the recorded IC50 of the following compound: O=c1nc(OCc2cc(F)c(Oc3ccnc(C(F)(F)F)c3)c(F)c2)cc2n1CC1CCCCN21 (centres unmarked) [Example E45]
≤ 1 nM

Fill in: IC50 of "O=c1nc(OCc2cc(F)c(F)c(F)c2)cc2n1C[C@@H]1CCOCN21" is ___
≤ 100 nM

Look up IC50 for this compound: "O=c1nc(OCc2ccc(Cl)c(F)c2)cc2n1C[C@H]1COCN21"
≤ 100 nM

I'd like to know its IC50. The compound in question is "O=c1nc(OCc2cc(F)c(F)c(F)c2)cc2n1C[C@@H]1COCN21"
≤ 100 nM

GET /values?readout=IC50&item= "O=c1nc(OCc2cccc(F)c2F)cc2n1C[C@H]1COCCN21"
≤ 100 nM

Look up IC50: N#Cc1cc(COc2cc3n(c(=O)n2)CC2CCCN32)ccc1Oc1ccc(Cl)c(C(F)(F)F)c1 (centres unmarked)
≤ 1 nM

Consider the compound O=c1nc(OCc2cc(F)c(Oc3ccnc(C(F)(F)F)c3)c(F)c2)cc2n1CC1COCCN21 (centres unmarked) and give its measured IC50.
0.0398 nM

Quick one: IC50 of "Cn1cc(Oc2c(F)cc(COc3cc4n(c(=O)n3)C[C@@H]3COCCN43)cc2F)cn1" ?
≤ 100 nM
